# Study System: UniProt:P28223
# Experimental Details: IP1 formation (Gαq-mediated signaling), h5-HT2A
# Type: cell-based
# Parameters: expressed in transfected cells; host or cells: HEK 293 cells (membrane preparation)
# Experimental Context: read-out: IP1 formation Emax h5-HT2A (95% CI)

{"Compound": "CCCCc1cc(OC)c(CC(C)N)cc1OC (stereo not drawn)", "Quantity Unit": "%", "Emax": 90}
{"Compound": "CCCc1cc(OC)c(CC(C)N)cc1OC.Cl (stereo not drawn)", "Quantity Unit": "%", "Emax": 96}
{"Compound": "COc1cc(CC(C)N)c(OC)cc1C (stereo not drawn)", "Quantity Unit": "%", "Emax": 92}
{"Compound": "COc1ccc(OC)c(CC(C)N)c1.Cl (stereo not drawn) [2,5-DMA, 2,5-Dimethoxyamphetamine hydrochloride]", "Quantity Unit": "%", "Emax": 99}
{"Compound": "CCc1cc(OC)c(CC(C)N)cc1OC (stereo not drawn)", "Quantity Unit": "%", "Emax": 93}
{"Compound": "CCCCCc1cc(OC)c(CC(C)N)cc1OC (stereo not drawn)", "Quantity Unit": "%", "Emax": 83}

---

# Study System: hDAT (Homo sapiens)
# Construct: expressed in transfected cells; host or cells: HEK 293 cells (membrane preparation)
# Sequence (Q01959 whole entry): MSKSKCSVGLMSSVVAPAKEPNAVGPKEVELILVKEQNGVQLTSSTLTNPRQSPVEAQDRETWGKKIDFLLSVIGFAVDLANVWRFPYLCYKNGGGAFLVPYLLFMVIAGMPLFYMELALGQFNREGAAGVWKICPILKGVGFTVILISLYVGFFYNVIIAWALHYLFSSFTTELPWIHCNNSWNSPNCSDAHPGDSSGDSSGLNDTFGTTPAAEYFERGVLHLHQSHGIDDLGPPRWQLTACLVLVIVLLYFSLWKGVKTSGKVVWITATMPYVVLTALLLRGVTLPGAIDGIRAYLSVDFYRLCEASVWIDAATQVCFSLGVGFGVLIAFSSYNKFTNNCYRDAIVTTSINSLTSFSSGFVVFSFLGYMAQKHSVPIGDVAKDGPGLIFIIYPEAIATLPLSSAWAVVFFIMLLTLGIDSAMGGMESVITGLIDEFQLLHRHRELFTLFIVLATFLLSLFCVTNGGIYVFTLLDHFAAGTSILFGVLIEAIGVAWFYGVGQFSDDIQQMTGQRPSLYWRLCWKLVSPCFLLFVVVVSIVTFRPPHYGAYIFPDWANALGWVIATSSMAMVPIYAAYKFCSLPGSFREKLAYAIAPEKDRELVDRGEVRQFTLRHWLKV
# Experimental Details: Radioligand binding, hDAT ([3H]WIN35,428)
# Experimental Context: Ki DAT, text value (range DAT and SERT 3.6–4.6)
Measured Quantity: Ki (µM)

{"Compound": "CCCCCc1cc(OC)c(CC(C)N)cc1OC (stereo not shown)", "Quantity Unit": "µM", "Data Value": 3.6}

---

# System: C57BL/6 J mice
# Experimental Details: Locomotor activity in mice (dose-response sessions)
# Type: in vivo, mouse
# Experimental Context: 0.1 mg/kg s.c.; 30-min session; mean ± SEM
Measured Quantity: Locomotor activity (distance traveled)

{"Compound": "CCCCCc1cc(OC)c(CC(C)N)cc1OC (centres unmarked) [DOAM, 4-amyl-2,5-dimethoxyamphetamine]", "Measured Quantity": "Locomotor activity (distance traveled)", "Data Value": "2,677 ± 103 cm"}
{"Compound": "COc1cc(CC(C)N)c(OC)cc1C (centres unmarked) [DOM, 4-methyl-2,5-dimethoxyamphetamine]", "Measured Quantity": "Locomotor activity (distance traveled)", "Data Value": "2,522 ± 203 cm"}
{"Compound": "CCCc1cc(OC)c(CC(C)N)cc1OC.Cl (centres unmarked) [DOPR]", "Measured Quantity": "Locomotor activity (distance traveled)", "Data Value": "2,791 ± 131 cm"}
{"Compound": "COc1ccc(OC)c(CC(C)N)c1.Cl (centres unmarked) [2,5-DMA, 2,5-Dimethoxyamphetamine hydrochloride]", "Measured Quantity": "Locomotor activity (distance traveled)", "Data Value": "2,763 ± 284 cm"}
{"Compound": "CCCCc1cc(OC)c(CC(C)N)cc1OC (centres unmarked) [DOBU, 4-butyl-2,5-dimethoxyamphetamine]", "Measured Quantity": "Locomotor activity (distance traveled)", "Data Value": "2,342 ± 184 cm"}

---

Reported pKi, h5-HT2B (Homo sapiens).
pKi: −log10 of the molar value.

{"Compound": "CCCCCc1cc(OC)c(CC(C)N)cc1OC (stereo not drawn)", "pKi": 7.01}
{"Compound": "COc1ccc(OC)c(CC(C)N)c1.Cl (stereo not drawn) [2,5-DMA, 2,5-Dimethoxyamphetamine hydrochloride]", "pKi": 5.29}
{"Compound": "CCCc1cc(OC)c(CC(C)N)cc1OC.Cl (stereo not drawn)", "pKi": 6.90}
{"Compound": "COc1cc(CC(C)N)c(OC)cc1C (stereo not drawn)", "pKi": 6.83}
{"Compound": "CCCCc1cc(OC)c(CC(C)N)cc1OC (stereo not drawn)", "pKi": 6.79}
{"Compound": "CCc1cc(OC)c(CC(C)N)cc1OC (stereo not drawn)", "pKi": 6.76}

---

# Study System: hα2A (Homo sapiens, UniProt P08913)
# Sequence (P08913 1-465): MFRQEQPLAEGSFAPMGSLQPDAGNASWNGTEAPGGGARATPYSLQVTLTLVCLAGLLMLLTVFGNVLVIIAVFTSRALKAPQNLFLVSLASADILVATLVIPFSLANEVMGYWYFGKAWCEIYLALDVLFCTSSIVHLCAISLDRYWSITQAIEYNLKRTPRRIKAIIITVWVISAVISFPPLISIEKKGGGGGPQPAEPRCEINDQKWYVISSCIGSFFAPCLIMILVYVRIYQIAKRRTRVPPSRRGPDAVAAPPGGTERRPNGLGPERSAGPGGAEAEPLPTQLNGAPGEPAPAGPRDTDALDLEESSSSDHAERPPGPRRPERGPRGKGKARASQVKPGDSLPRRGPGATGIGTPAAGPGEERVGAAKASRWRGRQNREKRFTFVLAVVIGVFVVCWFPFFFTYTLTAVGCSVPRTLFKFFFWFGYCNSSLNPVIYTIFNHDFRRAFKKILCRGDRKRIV
pKi: −log10 of the molar value.

{"Compound": "CCc1cc(OC)c(CC(C)N)cc1OC (stereo not drawn) [DOET, 4-ethyl-2,5-dimethoxyamphetamine]", "Study System": "hα2A (Homo sapiens, UniProt P08913)", "Qual": "<", "pKi": 5.30}
{"Compound": "CCCCc1cc(OC)c(CC(C)N)cc1OC (stereo not drawn) [DOBU, 4-butyl-2,5-dimethoxyamphetamine]", "Study System": "hα2A (Homo sapiens, UniProt P08913)", "Qual": "=", "pKi": 5.77}
{"Compound": "COc1cc(CC(C)N)c(OC)cc1C (stereo not drawn) [DOM, 4-methyl-2,5-dimethoxyamphetamine]", "Study System": "hα2A (Homo sapiens, UniProt P08913)", "Qual": "<", "pKi": 5.30}
{"Compound": "CCCc1cc(OC)c(CC(C)N)cc1OC.Cl (stereo not drawn) [DOPR]", "Study System": "hα2A (Homo sapiens, UniProt P08913)", "Qual": "=", "pKi": 6.29}
{"Compound": "COc1ccc(OC)c(CC(C)N)c1.Cl (stereo not drawn) [2,5-DMA, 2,5-Dimethoxyamphetamine hydrochloride]", "Study System": "hα2A (Homo sapiens, UniProt P08913)", "Qual": "=", "pKi": 5.36}
{"Compound": "CCCCCc1cc(OC)c(CC(C)N)cc1OC (stereo not drawn) [DOAM, 4-amyl-2,5-dimethoxyamphetamine]", "Study System": "hα2A (Homo sapiens, UniProt P08913)", "Qual": "=", "pKi": 5.64}

---

Form field: Ki (one value per entry).
# Study System: h5-HT2A (Homo sapiens, UniProt P28223)
# Sequence (P28223 whole entry, looked up): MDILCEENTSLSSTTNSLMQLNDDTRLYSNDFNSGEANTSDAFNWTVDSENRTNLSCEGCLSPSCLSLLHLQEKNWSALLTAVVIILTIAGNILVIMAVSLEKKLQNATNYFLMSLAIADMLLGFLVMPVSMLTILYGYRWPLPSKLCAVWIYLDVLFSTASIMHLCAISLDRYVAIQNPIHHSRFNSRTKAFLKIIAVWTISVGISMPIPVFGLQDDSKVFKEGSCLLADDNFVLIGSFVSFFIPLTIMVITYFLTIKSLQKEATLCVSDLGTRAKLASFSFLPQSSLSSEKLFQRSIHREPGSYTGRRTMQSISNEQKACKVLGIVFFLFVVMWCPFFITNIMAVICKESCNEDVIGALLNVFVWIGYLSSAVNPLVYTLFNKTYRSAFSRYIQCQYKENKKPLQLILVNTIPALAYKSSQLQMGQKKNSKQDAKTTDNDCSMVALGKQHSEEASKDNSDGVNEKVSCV
Measured Quantity: Ki (nM)

{"Compound": "CCCCc1cc(OC)c(CC(C)N)cc1OC (centres unmarked) [DOBU, 4-butyl-2,5-dimethoxyamphetamine]", "Data Value": 5.4}
{"Compound": "CCCCCc1cc(OC)c(CC(C)N)cc1OC (centres unmarked) [DOAM, 4-amyl-2,5-dimethoxyamphetamine]", "Data Value": 3.5}
{"Compound": "CCc1cc(OC)c(CC(C)N)cc1OC (centres unmarked) [DOET, 4-ethyl-2,5-dimethoxyamphetamine]", "Data Value": 12}
{"Compound": "COc1cc(CC(C)N)c(OC)cc1C (centres unmarked) [DOM, 4-methyl-2,5-dimethoxyamphetamine]", "Data Value": 66}
{"Compound": "CCCc1cc(OC)c(CC(C)N)cc1OC.Cl (centres unmarked) [DOPR]", "Data Value": 11}

---

# Study System: h5-HT1A (Homo sapiens, UniProt P08908)
# Construct: expressed in transfected cells; host or cells: HEK 293 cells (membrane preparation)
# Sequence (P08908 whole entry): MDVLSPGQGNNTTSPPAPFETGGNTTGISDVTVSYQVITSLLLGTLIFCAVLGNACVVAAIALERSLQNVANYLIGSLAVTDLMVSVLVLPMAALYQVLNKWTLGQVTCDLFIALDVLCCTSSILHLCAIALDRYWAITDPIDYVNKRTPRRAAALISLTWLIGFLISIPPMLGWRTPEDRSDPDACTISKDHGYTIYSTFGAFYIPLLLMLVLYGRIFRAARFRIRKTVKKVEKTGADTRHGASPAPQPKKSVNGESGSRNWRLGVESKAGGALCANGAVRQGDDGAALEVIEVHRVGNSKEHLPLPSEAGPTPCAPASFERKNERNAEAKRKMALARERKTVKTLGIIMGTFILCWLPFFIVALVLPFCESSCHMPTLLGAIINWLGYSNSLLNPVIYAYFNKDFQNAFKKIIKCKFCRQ
# Experimental Details: Radioligand binding, h5-HT1A receptor ([3H]8-OH-DPAT)
# Experimental Context: read-out: Ki h5-HT1A (95% CI); receptor binding; HEK 293 membranes

{"Molecule": "COc1cc(CC(C)N)c(OC)cc1C (stereo not shown)", "Ki [µM]": 7.24}

---

# Study System: UniProtKB P35348
# Sequence (P35348 1-466): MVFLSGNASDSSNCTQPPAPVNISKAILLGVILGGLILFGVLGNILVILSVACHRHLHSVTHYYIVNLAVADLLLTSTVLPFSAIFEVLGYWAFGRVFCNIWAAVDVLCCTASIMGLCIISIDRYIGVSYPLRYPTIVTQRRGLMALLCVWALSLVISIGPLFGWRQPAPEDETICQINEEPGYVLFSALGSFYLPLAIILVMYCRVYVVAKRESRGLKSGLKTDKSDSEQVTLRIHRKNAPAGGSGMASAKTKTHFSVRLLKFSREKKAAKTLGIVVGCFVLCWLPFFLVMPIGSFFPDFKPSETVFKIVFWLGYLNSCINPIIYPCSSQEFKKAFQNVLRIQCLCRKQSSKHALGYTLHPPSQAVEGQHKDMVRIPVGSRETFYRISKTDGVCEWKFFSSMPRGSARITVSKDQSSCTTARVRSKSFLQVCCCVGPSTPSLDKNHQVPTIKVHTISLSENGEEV

{"Compound": "CCCCCc1cc(OC)c(CC(C)N)cc1OC (stereo not shown)", "Ki": "2.52 µM"}
{"Compound": "COc1ccc(OC)c(CC(C)N)c1.Cl (stereo not shown) [2,5-DMA, 2,5-Dimethoxyamphetamine hydrochloride]", "Ki": "5.36 µM"}
{"Compound": "CCc1cc(OC)c(CC(C)N)cc1OC (stereo not shown)", "Ki": "4.01 µM"}
{"Compound": "CCCCc1cc(OC)c(CC(C)N)cc1OC (stereo not shown)", "Ki": "2.1 µM"}
